Test System: T1, human Ig1,2 TrkA (recombinant D4-D5 domain of human TrkA receptor) (human, UniProt P04629 191-392)
T1 construct: also called hTrkA Ig1,2; TrkA Ig1,2
T1 chain: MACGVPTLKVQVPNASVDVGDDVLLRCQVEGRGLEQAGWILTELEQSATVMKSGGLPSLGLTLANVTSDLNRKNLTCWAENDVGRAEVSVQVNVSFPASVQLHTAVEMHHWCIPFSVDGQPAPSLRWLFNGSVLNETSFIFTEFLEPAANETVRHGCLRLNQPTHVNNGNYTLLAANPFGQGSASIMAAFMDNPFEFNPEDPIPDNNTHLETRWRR
Assay Notes: SPR (Biacore X-100); scFv immobilised on CM5 chip, human Ig1,2 TrkA injected

>  <Binder>
anti-TrkA scFv CRB0072 (scFv, From hSPLINT_09 selection) scFv: DIQMTQSPISLSATVGDRVTITCRASQSIGRYLNWYQQKPGKAPKLLIYGASSLESGVPSRFSGSGSGTVFTLTISGLQPEDFATYCCQQSHSTAWTFGQGTKVEIKSGGSTSGSGKPGSGEGSSGTEVQLVETGGGLVQPGSSLRLSCATSGFTFINYGVHWVRQPPGKGLEWVASIWYEGSNEKYADSVKGRFTISRDNSRYTLHLQLNSLRAEDTADYYCVRDRGTGDYRNSRFYYGMDVWGQGTTVTVSS

>  <kon [M⁻¹ s⁻¹]>
3680

$$$$
>  <Binder>
anti-TrkA scFv CRB0088 (scFv, From hSPLINT_09 selection) scFv: QPVLTQSPPASASLGASVKLTCTLSSGHSSYAIAWHQQQPEKGPRYLMKVNSDGSHNKGDGIPDRFSGSRSGAERYLTISSLHSEDEADYYCQTWGAGGVVFGGGTKLTVLSGGSTSGSGKPGSGEGSSGTEVQLLESGGGLVQPGGSLRLSCAASGFTFSDHYMDWVRQAPGKGLEWVGRIRNKANSYTTEYAASVKGRFTISRDDSKKTLYLQMTSLKTDDTALYYCARDLGASDAFDLWGQGTMVTVSS

>  <kon [M⁻¹ s⁻¹]>
2760

$$$$
>  <Binder>
anti-TrkA scFv CRB0084 (scFv, From hSPLINT_09 selection) scFv: QPVLTQPPSVSVAPRQTATITCGGNYIGSKSVHWYQQKPGQDPVLVVNDDSDRPSGIPERFSGSNSANTATLTISGVEAGDEADYYCQVWDSSTEPVVFGGGTKLTVLSGGSTSGSGKPGSGEGSSGTQVQLQQWGAGLLRPSETLSLTCTVSGGSFSDSYWTWIRQSPGKGLEWIGENNHRGSTNYSPTLRSRLSISIDSSKNQFSLKLSSVTAADTAVYYCARVPYRLRSRIFDVWGQGTMVTVSS

>  <kon [M⁻¹ s⁻¹]>
9600

$$$$
